Hello, the source for this data is the supplement of paper PMC11061612, in case you need it.

test system: KARPAS-299 (T-Cell Non-Hodgkin's Lymphoma); assay: Bliss excess, mean over the matrix (fraction); higher = more synergy;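 also: after 72 h of two-drug dosing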
# Bliss excess per record follows
Just the number, please, no unit after it.

Past entries and their recorded results:
### Prompt Quick one: give measured Bliss excess for CC(=O)c1c(C)c2cnc(Nc3ccc(N4CCNCC4)cn3)nc2n(C2CCCC2)c1=O [Palbociclib] + Cc1c2c(nn1C)CSCc1cc(n(C)n1)CSc1cc(c3ccccc3c1)OCCCc1c(C(=O)O)n(C)c3c-2c(Cl)ccc13 [AZD5991] (first compound max 10 µM, 7x7, partner max 1 µM)
### Response 0.0262

### Prompt Quick one: give measured Bliss excess for N#Cc1cnc(Nc2cc(NC[C@H]3CNCCO3)c(C(F)(F)F)cn2)cn1 [SRA737] + CCc1c2c(nc3ccc(O)cc13)-c1cc3c(c(=O)n1C2)COC(=O)[C@]3(O)CC [SN-38] (first compound max 10 µM, 7x7, partner max 0.3 µM)
### Response 0.0148

### Prompt Quick one: give measured Bliss excess for Cc1c2c(nn1C)CSCc1cc(n(C)n1)CSc1cc(c3ccccc3c1)OCCCc1c(C(=O)O)n(C)c3c-2c(Cl)ccc13 [AZD5991] + Cn1cnc2c(F)c(Nc3ccc(Br)cc3Cl)c(C(=O)NOCCO)cc21 [Selumetinib] (first compound max 1 µM, 7x7, partner max 3 µM)
### Response 0.0496

### Prompt Quick one: give measured Bliss excess for COc1cccc(OCCCN)c1-c1cc(Nc2cnc(C#N)cn2)n[nH]1 [Prexasertib] + C=CCn1c(=O)c2cnc(Nc3ccc(N4CCN(C)CC4)cc3)nc2n1-c1cccc(C(C)(C)O)n1 [AZD1775] (first compound max 1 µM, partner max 1 µM)
### Response -0.0076

### Prompt Quick one: give measured Bliss excess for CN(CCO)CC[C@H](CSc1ccccc1)Nc1ccc(S(=O)(=O)NC(=O)c2ccc(N3CCC([C@@H](O)c4ccccc4-c4ccc(Cl)cc4)CC3)cc2)cc1S(=O)(=O)C(F)(F)F [AZD4320] + C[C@@H]1COCCN1C2=NC(=NC(=C2)C3(CC3)[S@](=N)(=O)C)C4=C5C=CNC5=NC=C4 [AZD6738] (first compound max 1 µM, 7x7, partner max 10 µM)
### Response -0.0153

Others:
### Prompt Quick one: give measured Bliss excess for CN(C)CCCOc1ccc(-c2ccc3ncc4c(c3c2)n(C2CCOCC2)c(=O)n4C)cn1 [AZD0156] + C[C@@H]1COCCN1C2=NC(=NC(=C2)C3(CC3)[S@](=N)(=O)C)C4=C5C=CNC5=NC=C4 [AZD6738] (first compound max 1 µM, 7x7, partner max 10 µM)
### Response -0.0283

### Prompt Quick one: give measured Bliss excess for COc1cc2ncnc(Nc3ccc(F)c(Cl)c3)c2cc1OCCCN1CCOCC1 [Gefitinib] + CC(C)n1c(=O)n(C)c2cnc3cc(F)c(-c4ccc(OCCCN5CCCCC5)nc4)cc3c21 [AZD1390] (first compound max 10 µM, 7x7, partner max 0.3 µM)
### Response -0.0218

----------
# Bliss excess per record follows
test system: NB69 (Neuroblastoma); assay: Bliss excess, mean over the matrix (fraction); higher = more synergy
Just the number, please, no unit after it.

Past entries and their recorded results:
### Prompt Quick one: give measured Bliss excess for COc1nnc2ccc(N3CCC(c4ccc(OCCN5CCN(C)C(=O)[C@H]5C)cc4)CC3)nn12 [AZD5153] + C=CCn1c(=O)c2cnc(Nc3ccc(N4CCN(C)CC4)cc3)nc2n1-c1cccc(C(C)(C)O)n1 [AZD1775] (first compound max 1 µM, partner max 1 µM)
### Response -0.0206

### Prompt Quick one: give measured Bliss excess for CCc1c2c(nc3ccc(O)cc13)-c1cc3c(c(=O)n1C2)COC(=O)[C@]3(O)CC [SN-38] + O=C(c1cc(Cc2n[nH]c(=O)c3ccccc23)ccc1F)N1CCN(C(=O)C2CC2)CC1 [Olaparib] (first compound max 0.3 µM, 7x7, partner max 10 µM)
### Response 0.0236

### Prompt Quick one: give measured Bliss excess for Cn1cnc2c(F)c(Nc3ccc(Br)cc3Cl)c(C(=O)NOCCO)cc21 [Selumetinib] + CCN(CCO)CCCOc1ccc2c(Nc3cc(CC(=O)Nc4cccc(F)c4)[nH]n3)ncnc2c1 [AZD2811] (first compound max 10 µM, 7x7, partner max 1 µM)
### Response -0.0155

# next molecule below
### Prompt Quick one: give measured Bliss excess for CS(=O)(=O)CCNCc1ccc(-c2ccc3ncnc(Nc4ccc(OCc5cccc(F)c5)c(Cl)c4)c3c2)o1 [Lapatinib] + Cn1cnc2c(F)c(Nc3ccc(Br)cc3Cl)c(C(=O)NOCCO)cc21 [Selumetinib] (first compound max 10 µM, 7x7, partner max 10 µM)
### Response -0.0397

----------
test system: KYSE-450 (Esophageal Squamous Cell Carcinoma); assay: Bliss excess, mean over the matrix (fraction); higher = more synergy
OUTCOME MEASURE: Bliss excess
Just the number, please, no unit after it.

Past entries and their recorded results:
### Prompt Quick one: give measured Bliss excess for CN(CCO)CC[C@H](CSc1ccccc1)Nc1ccc(S(=O)(=O)NC(=O)c2ccc(N3CCC([C@@H](O)c4ccccc4-c4ccc(Cl)cc4)CC3)cc2)cc1S(=O)(=O)C(F)(F)F [AZD4320] + C[C@@H]1COCCN1C2=NC(=NC(=C2)C3(CC3)[S@](=N)(=O)C)C4=C5C=CNC5=NC=C4 [AZD6738] (first compound max 1 µM, 7x7, partner max 10 µM)
### Response -0.0496

### Prompt Quick one: give measured Bliss excess for Cn1cnc2c(F)c(Nc3ccc(Br)cc3Cl)c(C(=O)NOCCO)cc21 [Selumetinib] + CCN(CCO)CCCOc1ccc2c(Nc3cc(CC(=O)Nc4cccc(F)c4)[nH]n3)ncnc2c1 [AZD2811] (first compound max 10 µM, 7x7, partner max 1 µM)
### Response -0.0117

### Prompt Quick one: give measured Bliss excess for CS(=O)(=O)CCNCc1ccc(-c2ccc3ncnc(Nc4ccc(OCc5cccc(F)c5)c(Cl)c4)c3c2)o1 [Lapatinib] + Cn1cnc2c(F)c(Nc3ccc(Br)cc3Cl)c(C(=O)NOCCO)cc21 [Selumetinib] (first compound max 10 µM, 7x7, partner max 10 µM)
### Response -0.016

### Prompt Quick one: give measured Bliss excess for COc1cc2c(cc1OCCCCCOc1cc3c(cc1OC)C(=O)N1C=C(C)C[C@H]1C=N3)N=C[C@@H]1CC(C)=CN1C2=O [SG3199] + O=C(c1cc(Cc2n[nH]c(=O)c3ccccc23)ccc1F)N1CCN(C(=O)C2CC2)CC1 [Olaparib] (first compound max 0.001 µM, 7x7, partner max 10 µM)
### Response -0.041

### Prompt Quick one: give measured Bliss excess for COc1cccc(OCCCN)c1-c1cc(Nc2cnc(C#N)cn2)n[nH]1 [Prexasertib] + CN(C)CCCOc1ccc(-c2ccc3ncc4c(c3c2)n(C2CCOCC2)c(=O)n4C)cn1 [AZD0156] (first compound max 1 µM, 7x7, partner max 1 µM)
### Response -0.0713

### Prompt Quick one: give measured Bliss excess for COc1cccc(OCCCN)c1-c1cc(Nc2cnc(C#N)cn2)n[nH]1 [Prexasertib] + C=CCn1c(=O)c2cnc(Nc3ccc(N4CCN(C)CC4)cc3)nc2n1-c1cccc(C(C)(C)O)n1 [AZD1775] (first compound max 1 µM, partner max 1 µM)
### Response 0.219

### Prompt Quick one: give measured Bliss excess for Cc1c2c(nn1C)CSCc1cc(n(C)n1)CSc1cc(c3ccccc3c1)OCCCc1c(C(=O)O)n(C)c3c-2c(Cl)ccc13 [AZD5991] + C=CCn1c(=O)c2cnc(Nc3ccc(N4CCN(C)CC4)cc3)nc2n1-c1cccc(C(C)(C)O)n1 [AZD1775] (first compound max 1 µM, partner max 1 µM)
### Response 0.025

### Prompt Quick one: give measured Bliss excess for C[C@@H](Nc1cc(F)cc(F)c1)c1cc(C(=O)N(C)C)cc2c(=O)cc(N3CCOCC3)oc12 [AZD8186] + C1CN(CCC1(C(=O)N[C@@H](CCO)C2=CC=C(C=C2)Cl)N)C3=NC=NC4=C3C=CN4 [AZD5363] (first compound max 10 µM, 7x7, partner max 10 µM)
### Response 0.0035

Others:
### Prompt Quick one: give measured Bliss excess for C[C@@H]1COCCN1c1cc(C2([S@](C)(=N)=O)CC2)nc(-c2ccnc3[nH]ccc23)n1 [AZD6738] + Nc1ccn([C@@H]2O[C@H](CO)[C@@H](O)C2(F)F)c(=O)n1 [Gemcitabine] (first compound max 10 µM, 7x7, partner max 0.3 µM)
### Response 0.104

### Prompt Quick one: give measured Bliss excess for Cc1nc(-c2cn3c(n2)-c2ccc(-c4cnn(C(C)(C)C(N)=O)c4)cc2OCC3)n(C(C)C)n1 [Taselisib] + O=C(Nc1ccc2[nH]nc(-c3ccncc3)c2c1)[C@@H]1CCN(CC(=O)N2CCN(c3ccc(-c4ncccn4)cc3)CC2)C1 [SCH772984] (first compound max 10 µM, 7x7, partner max 5 µM)
### Response 0.0365

### Prompt Quick one: give measured Bliss excess for CC1(C)CCC(CN2CCN(c3ccc(C(=O)NS(=O)(=O)c4ccc(NCC5CCOCC5)c([N+](=O)[O-])c4)c(Oc4cnc5[nH]ccc5c4)c3)CC2)=C(c2ccc(Cl)cc2)C1 [Venetoclax] + CN(C)CCCOc1ccc(-c2ccc3ncc4c(c3c2)n(C2CCOCC2)c(=O)n4C)cn1 [AZD0156] (first compound max 1 µM, 7x7, partner max 1 µM)
### Response -0.0795

### Prompt Quick one: give measured Bliss excess for Cc1c2c(nn1C)CSCc1cc(n(C)n1)CSc1cc(c3ccccc3c1)OCCCc1c(C(=O)O)n(C)c3c-2c(Cl)ccc13 [AZD5991] + C[C@@H]1COCCN1C2=NC(=NC(=C2)C3(CC3)[S@](=N)(=O)C)C4=C5C=CNC5=NC=C4 [AZD6738] (first compound max 1 µM, 7x7, partner max 10 µM)
### Response 0.0407

### Prompt Quick one: give measured Bliss excess for O=C(c1cc(Cc2n[nH]c(=O)c3ccccc23)ccc1F)N1CCN(C(=O)C2CC2)CC1 [Olaparib] + CN(CC[C@H](CSC1=CC=CC=C1)NC2=C(C=C(C=C2)S(=O)(=O)NC(=O)C3=CC=C(C=C3)N4CCC(CC4)[C@H](C5=CC=CC=C5C6=CC=C(C=C6)Cl)O)S(=O)(=O)C(F)(F)F)CCO [AZD4320] (first compound max 10 µM, 7x7, partner max 1 µM)
### Response -0.0434
